TEST_DETAILS: amyloid nucleation score (Sup35N fusion, yeast selection) (log enrichment); library NNK3; higher = more nucleation; inactive = no reads after selection;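 note: zero at mode of non-aggregating sequences after 7 days selection at 30°C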
MEASURE_NAME: amyloid nucleation score

[[record]]
substance = "LSSVKCSKWSIFMYMRQYIW"
data_value = "inactive"

[[record]]
substance = "LYAFRDSCDTFSC"
data_value = "inactive"

[[record]]
substance = "DSLSDLLYSFKFKG"
data_value = "inactive"

[[record]]
substance = "DRVITSNFFSSVWTQT"
data_value = "inactive"

[[record]]
substance = "IDRGNSNRPCPDFTDCFYGR"
data_value = "inactive"


INPUT: Please supply the value of reported amyloid nucleation score for the item `REAYDLFSCIDYVLNFMFNY`
OUTPUT: inactive

INPUT: Please supply the value of reported amyloid nucleation score for the item `CKTGPEDTC`
OUTPUT: inactive

INPUT: Please supply the value of reported amyloid nucleation score for the item `DNQVICISCYGLIGLKGGRQ`
OUTPUT: 1.5

INPUT: Please supply the value of reported amyloid nucleation score for the item `RIKLRLFTTHEYCSRDRCSD`
OUTPUT: inactive

INPUT: Please supply the value of reported amyloid nucleation score for the item `CIVKTLQ`
OUTPUT: inactive

###

TEST_DETAILS: amyloid nucleation score (Sup35N fusion, yeast selection) (log enrichment); library NNK3; higher = more nucleation; inactive = no reads after selection
MEASURE_NAME: amyloid nucleation score

Before answering, review these 5 worked examples.
[[record]]
substance = "LWLVIN"
data_value = "inactive"

[[record]]
substance = "KAPRMVLLRSGIVMLAHSEN"
data_value = "inactive"

[[record]]
substance = "RTLAVSIRNQWPYIGLARDT"
data_value = "inactive"

[[record]]
substance = "YHRTFWSFGSKVFLRVNWCR"
data_value = "inactive"

[[record]]
substance = "LLDDVIRDAMPGSAGRSISG"
data_value = "inactive"


INPUT: Please supply the value of reported amyloid nucleation score for the item `RGSKQLDWHSYYNRVLDIGR`
OUTPUT: -0.296

INPUT: Please supply the value of reported amyloid nucleation score for the item `FKFVQDAHQNLGVIRSYRRS`
OUTPUT: inactive

INPUT: Please supply the value of reported amyloid nucleation score for the item `GKTLLTSKDGCV`
OUTPUT: inactive

INPUT: Please supply the value of reported amyloid nucleation score for the item `TYVRHFVIRFMREGRSLGGR`
OUTPUT: inactive

INPUT: Please supply the value of reported amyloid nucleation score for the item `LVVKFSLDKWPRQNVSSLAS`
OUTPUT: inactive

INPUT: Please supply the value of reported amyloid nucleation score for the item `PGHFLECRKW`
OUTPUT: -0.096

INPUT: Please supply the value of reported amyloid nucleation score for the item `SLILENLFVSFLTSKIILGF`
OUTPUT: inactive

INPUT: Please supply the value of reported amyloid nucleation score for the item `EVVITLANAEGPAEQEF`
OUTPUT: inactive

INPUT: Please supply the value of reported amyloid nucleation score for the item `WNKGPQTQ`
OUTPUT: inactive

INPUT: Please supply the value of reported amyloid nucleation score for the item `LDLLSAVGGVQRLIIHCCWM`
OUTPUT: inactive

INPUT: Please supply the value of reported amyloid nucleation score for the item `CLQSQFLNFE`
OUTPUT: inactive

###

TEST_DETAILS: amyloid nucleation score (Sup35N fusion, yeast selection) (log enrichment); library NNK2; higher = more nucleation; inactive = no reads after selection
MEASURE_NAME: amyloid nucleation score

Before answering, review these 10 worked examples.
[[record]]
substance = "MSTGRCILRPFLGSPRSSVV"
data_value = "inactive"

[[record]]
substance = "NMIVYC"
data_value = "inactive"

[[record]]
substance = "FCFMIEGIFMCRLLLSRASF"
data_value = "inactive"

[[record]]
substance = "LPGSRHNSRMSLRTQVVKVL"
data_value = "inactive"

[[record]]
substance = "FIRIVSFMRWHATTSALAIA"
data_value = 0.106

[[record]]
substance = "PFTSYML"
data_value = 5.63

[[record]]
substance = "FSPLCYSYV"
data_value = -1.22

[[record]]
substance = "THYTDIIFFQEGLY"
data_value = "inactive"

[[record]]
substance = "RFSLSMDLLNPYST"
data_value = 4.15

[[record]]
substance = "PTIMLTGR"
data_value = 0.208


Now for a further substance.
INPUT: Please supply the value of reported amyloid nucleation score for the item `GCTGGRIK`
OUTPUT: -0.088

###

TEST_DETAILS: amyloid nucleation score (Sup35N fusion, yeast selection) (log enrichment); library NNK1; higher = more nucleation; inactive = no reads after selection
Please mark True if the recorded amyloid nucleation score is equal to or greater than 0.08, and False if it falls below.

INPUT: # bool: amyloid nucleation score of `PWDSHSHHSTNRQLRFSSSG` >= 0.08
OUTPUT: False

INPUT: # bool: amyloid nucleation score of `GGRLTRQRIVSVLLYVGVAG` >= 0.08
OUTPUT: False

INPUT: # bool: amyloid nucleation score of `VNVCYTMMEFVAGVYSGLLR` >= 0.08
OUTPUT: True

INPUT: # bool: amyloid nucleation score of `LQYGGQVISLNNR` >= 0.08
OUTPUT: True

INPUT: # bool: amyloid nucleation score of `MLIFNGFTLLVMRVEVAVGS` >= 0.08
OUTPUT: False

INPUT: # bool: amyloid nucleation score of `FKYALKTSCLLIVQDGGSMR` >= 0.08
OUTPUT: False

INPUT: # bool: amyloid nucleation score of `LAGMMHAPVVLGLWSCDGDG` >= 0.08
OUTPUT: False

INPUT: # bool: amyloid nucleation score of `GGRKKQLLDNYKGTYLVARI` >= 0.08
OUTPUT: False

INPUT: # bool: amyloid nucleation score of `ASAVIWGERAKLRKYLIPTR` >= 0.08
OUTPUT: True

INPUT: # bool: amyloid nucleation score of `YVYGYLNHRTSSGRMFFLFY` >= 0.08
OUTPUT: False

INPUT: # bool: amyloid nucleation score of `DSVVCRKYDVIGKCQRRGTC` >= 0.08
OUTPUT: True

INPUT: # bool: amyloid nucleation score of `SQAAGSVY` >= 0.08
OUTPUT: False

INPUT: # bool: amyloid nucleation score of `VAFYGFITKINLEIY` >= 0.08
OUTPUT: True

INPUT: # bool: amyloid nucleation score of `YFLRHCCPD` >= 0.08
OUTPUT: False

INPUT: # bool: amyloid nucleation score of `IFSENRDVGNVFSVGQIVIF` >= 0.08
OUTPUT: True

INPUT: # bool: amyloid nucleation score of `CDSKLHISSSC` >= 0.08
OUTPUT: True

INPUT: # bool: amyloid nucleation score of `SLFKRILYHVSGFRYCCTSV` >= 0.08
OUTPUT: False

###

TEST_DETAILS: amyloid nucleation score (Sup35N fusion, yeast selection) (log enrichment); library NNK2; higher = more nucleation; inactive = no reads after selection
MEASURE_NAME: amyloid nucleation score
Please give only the number in your answer, with no unit.

INPUT: Please supply the value of reported amyloid nucleation score for the item `QMFVRCSQ`
OUTPUT: 0.705

INPUT: Please supply the value of reported amyloid nucleation score for the item `TINMNIYFIVRVDPSFDNVV`
OUTPUT: 6.88

INPUT: Please supply the value of reported amyloid nucleation score for the item `LSNWHHFSQSRDFDKSLWVS`
OUTPUT: -0.386

INPUT: Please supply the value of reported amyloid nucleation score for the item `TFCVNFARRVSLRSVLATIG`
OUTPUT: 0.034

INPUT: Please supply the value of reported amyloid nucleation score for the item `MSTIITALEFNG`
OUTPUT: 0.188

INPUT: Please supply the value of reported amyloid nucleation score for the item `HSRLLCWANVDLERFSEWSG`
OUTPUT: 1.46

INPUT: Please supply the value of reported amyloid nucleation score for the item `WSVCKRLCNVEMLAENLAID`
OUTPUT: -0.67

INPUT: Please supply the value of reported amyloid nucleation score for the item `WTTYLGSFKWRNRVKWWPAP`
OUTPUT: 1.88

INPUT: Please supply the value of reported amyloid nucleation score for the item `DSWSAVYTNISELAIGGCHG`
OUTPUT: -0.055

INPUT: Please supply the value of reported amyloid nucleation score for the item `VNMIRRTINSGVYRWSFQLQ`
OUTPUT: 1.14

INPUT: Please supply the value of reported amyloid nucleation score for the item `MCGKFNTSSCIEIYRDSEFM`
OUTPUT: -0.432

INPUT: Please supply the value of reported amyloid nucleation score for the item `WAVELLLA`
OUTPUT: 1.03

INPUT: Please supply the value of reported amyloid nucleation score for the item `DPPSSFEFMCLRLWV`
OUTPUT: 3.35

INPUT: Please supply the value of reported amyloid nucleation score for the item `SGMWSNRDEALSCWRG`
OUTPUT: 0.29

INPUT: Please supply the value of reported amyloid nucleation score for the item `YSGRREILYHNRVSPHCMNL`
OUTPUT: 2.64

INPUT: Please supply the value of reported amyloid nucleation score for the item `FGNFLLSITII`
OUTPUT: 2.4

INPUT: Please supply the value of reported amyloid nucleation score for the item `VGCPEMGLVSLGSLLRLGSA`
OUTPUT: 0.968

INPUT: Please supply the value of reported amyloid nucleation score for the item `LRLARKRVECFVLLADFNNR`
OUTPUT: 0.306

INPUT: Please supply the value of reported amyloid nucleation score for the item `FNYYLCTPIKVGTCPCVDFR`
OUTPUT: 7.17

INPUT: Please supply the value of reported amyloid nucleation score for the item `LLSTDESCSTLNIYCIYTPR`
OUTPUT: 8.14

INPUT: Please supply the value of reported amyloid nucleation score for the item `FSRTTAHMTLDMYFTGRDGY`
OUTPUT: 5.79

INPUT: Please supply the value of reported amyloid nucleation score for the item `VIFVVNIFHLYWLRVC`
OUTPUT: 0.748

INPUT: Please supply the value of reported amyloid nucleation score for the item `FHAKRTINMNGATVQYGLYA`
OUTPUT: -0.354

INPUT: Please supply the value of reported amyloid nucleation score for the item `LNTSSYFVIDDFWIIFRRCR`
OUTPUT: -0.814

INPUT: Please supply the value of reported amyloid nucleation score for the item `YFSCEFDTYHGEYCCMWQIM`
OUTPUT: 0.069

INPUT: Please supply the value of reported amyloid nucleation score for the item `NGFYSGDFWEADGTRLDVTC`
OUTPUT: 0.053

INPUT: Please supply the value of reported amyloid nucleation score for the item `YTTYGHTSHLTLYPYTPRMM`
OUTPUT: 0.123

INPUT: Please supply the value of reported amyloid nucleation score for the item `TSVFFQGIALP`
OUTPUT: 8.23

INPUT: Please supply the value of reported amyloid nucleation score for the item `NGWLFFWFSIRITTSQVTSL`
OUTPUT: 2.54

INPUT: Please supply the value of reported amyloid nucleation score for the item `VRDLPMCNPYIRYTLFCQVS`
OUTPUT: -0.497

INPUT: Please supply the value of reported amyloid nucleation score for the item `LSNAFRLNYTLLYAFISYFH`
OUTPUT: -1.22

INPUT: Please supply the value of reported amyloid nucleation score for the item `VASKGCRYYNRLADFLHWSK`
OUTPUT: 0.027

INPUT: Please supply the value of reported amyloid nucleation score for the item `LVIALSFCY`
OUTPUT: 3.57

INPUT: Please supply the value of reported amyloid nucleation score for the item `YRCVWYGFPSRSWAGSSDIL`
OUTPUT: 0.309

INPUT: Please supply the value of reported amyloid nucleation score for the item `HVGVHSNFLQIS`
OUTPUT: -1.34

INPUT: Please supply the value of reported amyloid nucleation score for the item `FLGCYGLNCVSWKGMMSTPL`
OUTPUT: 4.31

INPUT: Please supply the value of reported amyloid nucleation score for the item `TTPGTDSLMAEII`
OUTPUT: 1.01
